Values from ChEMBL document CHEMBL1128161

TGT: Thromboxane A2 receptor (Homo sapiens) (UniProt P21731)
Sequence (P21731 whole entry): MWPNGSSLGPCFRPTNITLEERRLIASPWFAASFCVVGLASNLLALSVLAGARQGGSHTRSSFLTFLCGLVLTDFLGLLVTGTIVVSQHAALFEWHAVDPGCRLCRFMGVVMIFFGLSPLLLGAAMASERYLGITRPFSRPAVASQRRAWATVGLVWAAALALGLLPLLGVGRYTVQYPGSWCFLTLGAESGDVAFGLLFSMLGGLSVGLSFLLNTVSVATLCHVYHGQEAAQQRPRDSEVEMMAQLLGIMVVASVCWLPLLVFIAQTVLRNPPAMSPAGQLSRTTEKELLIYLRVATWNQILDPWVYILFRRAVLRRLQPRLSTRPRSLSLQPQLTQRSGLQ
RUN DESCRIPTION: Thromboxane A2 receptor binding affinity was evaluated, which is expressed as competition factor (CF = (IC50-test) / (IC50-standard); not parallel
REPORTED ENDPOINT: CF

{"ENTRY SMILES": "O=C(O)CC/C=C\\C[C@@H]1[C@@H](CNS(=O)(=O)c2ccc(F)cc2)CC[C@H]1F", "TGT": "Thromboxane A2 receptor (Homo sapiens) (UniProt P21731)", "CF": 11}
{"ENTRY SMILES": "Cc1ccc(S(=O)(=O)NC[C@H]2CC[C@H](F)[C@@H]2C/C=C\\CCC(=O)O)cc1", "TGT": "Thromboxane A2 receptor (Homo sapiens) (UniProt P21731)", "CF": 6}
{"ENTRY SMILES": "O=C(O)CC/C=C\\C[C@@H]1[C@@H](CNS(=O)(=O)c2ccc(Cl)cc2)CC[C@@H]1F", "TGT": "Thromboxane A2 receptor (Homo sapiens) (UniProt P21731)", "CF": 1.8}
{"ENTRY SMILES": "O=C(O)COCCCC[C@H]1[C@H](F)CC[C@@H]1NS(=O)(=O)c1ccccc1", "TGT": "Thromboxane A2 receptor (Homo sapiens) (UniProt P21731)", "CF": 9.1}
{"ENTRY SMILES": "O=C(O)COCCCCC1=CCC[C@@H]1CNS(=O)(=O)c1ccc(F)cc1", "TGT": "Thromboxane A2 receptor (Homo sapiens) (UniProt P21731)", "CF": 0.5}

a = O=C(O)COCCCC[C@H]1[C@H](F)CC[C@@H]1NS(=O)(=O)c1ccc(F)cc1
b = O=C(O)COCCCC[C@@H]1[C@@H](CNS(=O)(=O)c2ccc(F)cc2)CC[C@H]1F
q: // compare measured CF, left a , right b , return larger API: response body contains the label of the selected item.
a: b
